Data origin, for the record: patent US20160318844A1

- test_system: EP2 prostanoid receptor (Homo sapiens)
- Construct: host or cells: CHO-K1
- Sequence (P43116 whole entry): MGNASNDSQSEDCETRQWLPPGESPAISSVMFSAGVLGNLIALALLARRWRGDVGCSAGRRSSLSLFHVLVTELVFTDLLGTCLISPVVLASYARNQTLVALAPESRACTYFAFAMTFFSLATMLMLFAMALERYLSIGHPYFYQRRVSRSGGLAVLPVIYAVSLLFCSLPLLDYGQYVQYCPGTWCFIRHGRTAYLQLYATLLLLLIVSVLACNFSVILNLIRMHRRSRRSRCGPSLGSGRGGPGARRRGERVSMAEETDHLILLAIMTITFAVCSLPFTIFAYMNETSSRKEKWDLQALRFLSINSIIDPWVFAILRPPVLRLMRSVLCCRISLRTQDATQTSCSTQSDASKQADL
- assay_summary: GloSensor cAMP assay in CHO-K1 cells co-transfected with the EP2 receptor
- Format: cell-based
- conditions_used: EC50 (μM) 0.5 hr, 0.5 hr incubation time
measured_parameter: EC50 (µM)

Below, 2 compounds whose answers are already recorded.
compound	test_system	EC50 [µM]
CCCCCCCCCCCCOC(=O)COc1cccc2c1C[C@H]1C[C@@H](O)[C@H](CC[C@@H](O)CCCCC)[C@H]1C2 [Compound C12-TR, dodecyl-treprostinil]	EP2 prostanoid receptor (Homo sapiens)	4.98
CCCCC[C@H](O)CC[C@@H]1[C@H]2Cc3cccc(OCC(=O)O)c3C[C@H]2C[C@H]1O [Treprostinil]	EP2 prostanoid receptor (Homo sapiens)	0.18

A = CCCCC[C@H](O)CC[C@@H]1[C@H]2Cc3cccc(OCC(=O)OCC)c3C[C@H]2C[C@H]1O [Compound C2-TR, treprostinil ethyl ester]
B = CCCCCCCCOC(=O)COc1cccc2c1C[C@H]1C[C@@H](O)[C@H](CC[C@@H](O)CCCCC)[C@H]1C2 [Compound C8-TR, treprostinil octyl ester]
I'd appreciate it if you could identify which of A and B has the greater EC50. Reply with the label of the item you choose.
B
